Target: PtrCAs
Experiment: stopped-flow CO2 hydratase inhibition assay, whole diatom CAs (PtrCAs)
Details: CAs purified from P. tricornutum, mean from 3 assays
endpointLabel: IC50 (µM)

{"molecule": "CC(=O)/N=c1/sc(S(N)(=O)=O)nn1C [MZA, methazolamide, reference compound]", "endpointLabel": "IC50", "unitName": "µM", "observedValue": 0.0923}
{"molecule": "Cn1nc(S(N)(=O)=O)sc1=NC(=O)c1ccc(C(C)(C)C)cc1", "endpointLabel": "IC50", "unitName": "µM", "observedValue": 0.085}
{"molecule": "CC(C)(C)OC(=O)NCCNC(=O)c1ccc(S(N)(=O)=O)cc1", "endpointLabel": "IC50", "unitName": "µM", "observedValue": 0.0916}
